- TEST SUMMARY: PK in dogs after i.v. C118P
- Format: in vivo, beagle dogs
- CONDITION PARAMETERS: both sexes, beagle, dog, in vivo, iv; dogs, plasma, i.v. C118P 3 mg/kg, n = 6; read-out: CL (converted)
PARAMETER: clearance (mL/min/kg)
Just the number please, in mL/min/kg, no unit attached.

Param item = COc1cc(OC)cc(-c2nc[nH]c2-c2ccc(OC)c(OP(=O)([O-])[O-])c2)c1.[Na+].[Na+] [C118P] ; retrieve measured clearance.
10.1

====

- TEST SUMMARY: Plasma protein binding by ultrafiltration
- Format: in vitro ADME
- CONDITION PARAMETERS: pooled plasma; human plasma, C118 2000 ng/mL; read-out: fu (fraction unbound)
PARAMETER: fraction unbound at 1 h, 2000 ng/mL
Just the number, please, no unit attached.

Param item = COc1cc(OC)cc(-c2nc[nH]c2-c2ccc(OC)c(O)c2)c1 ; retrieve measured fraction unbound at 1 h, 2000 ng/mL.
0.047

The reported numbers originate from paper PMC6278385.
